- System: UO-31 renal
- TEST: NCI tumour cell line growth inhibition, 48 h
TEST_READOUT: TGI (µM)

1. Cc1cn2c(/C=N/N=C(N)N)c(-c3cccc([N+](=O)[O-])c3)nc2s1 ... 19.6
2. O=C1/C(=C\c2ccccc2)C(NC2CCCCC2)c2ccccc21 (stereo not given) ... 2.31
3. Fc1ccc(NC(=S)SCc2ccc3c(c2)OCO3)cc1F ... 37.9
4. COc1ccc2cc(NC(=O)N/N=C\c3ccc([N+](=O)[O-])cc3)ccc2c1 ... 46.4

----------
- Test system: HOP-62 NSCLC
- TEST: NCI tumour cell line growth inhibition, 48 h
*1 amine or outer side, *2 acyl side, *3 side chain or, on linkers, in order; H or OH if unused. Where a SMILES comes first, the peptide text is derived from it. Bridges are numbered along the chain shown (N, C = ends). [ ]: non-standard residue; d: D form. The star is where a group is joined. Phe(3,5-F2) = N[C@@H](Cc1cc(F)cc(F)c1)C(=O)O; Pro(4R-Me) = C[C@H]1CN[C@H](C(=O)O)C1; aThr = C[C@H](O)[C@H](N)C(=O)O; Pip = O=C(O)[C@@H]1CCCCN1; X10 = Fc1cc(C2CC2)ccc1N*; CO = O=C([*:1])[*:2]
TEST_READOUT: TGI

1. CC1(C(=O)O)CCC[C@@]2(C)C1CC[C@@]1(C)c3cocc3CCC21 (some centres not stated) ... > 100 µM
2. O=[N+]([O-])c1ccc2c(c1)/C(=N/N=C1c3ccccc3Cc3ccccc31)c1cc([N+](=O)[O-])cc([N+](=O)[O-])c1-2 ... 7.01 µM
3. C=C(C)C(OC)C(O)CC1(C)CC(O)CC(C)(C2CCC3OC(C4(C)CCC(Br)C(C)(C)O4)CCC3(C)O2)O1 (configuration not stated) ... 32.6 µM
4. Cc1ccc(C(=O)O)cc1S(=O)(=O)Nn1cnc2ccc(S(=O)(=O)Nc3ccccc3C(=O)O)cc2c1=O ... > 100 µM
5. O=C(O)CCNCCCNCCC(=O)O ... > 100 µM
6. Nc1c(C(=O)c2cccc(CCS(N)(=O)=O)c2)cnn1-c1ccc(F)cc1 ... > 25 µM
7. C[C@@H]1C[C@H]2C(=O)O[C@@H](C)[C@H](NC(=O)[C@H](Cc3cc(F)cc(F)c3)NC(=O)Nc3ccc(C4CC4)cc3F)C(=O)N3CCC[C@H]3C(=O)N3CCCC[C@H]3C(=O)N[C@@H](C)C(=O)N2C1 ({X10-CO}-[Phe(3,5-F2)][aThr]P[Pip]A[Pro(4R-Me)]; ester 2-C) ... > 48.2 µM

----------
- Tested on: NCI-H522 lung
- TEST: NCI tumour cell line growth inhibition, 48 h
TEST_READOUT: log10 TGI (log10 of the value in µM)

1) CCOC(=O)Cn1c(C(F)(F)F)nc2nc(Cl)c(Cl)nc21 ... 1.76
2) Cc1ccc(N=NC(=Nc2ccccc2)c2ccc(N(CCC#N)CCC#N)cc2)cc1 ... 1.66
3) COC(=O)c1cc(=O)nc2sc3cccc(C)c3n12 ... 1.68
4) O=c1c2cc([N+](=O)[O-])cnc2sn1-c1ccc([N+](=O)[O-])cc1 ... 1.41
5) C=CCO[C@H]1CO[C@H]2[C@@H]1OC[C@@H]2Oc1ccc(Nc2ccnc(Nc3ccc(O[C@H]4CO[C@H]5[C@@H]4OC[C@@H]5OCC=C)c(Cl)c3)n2)cc1Cl ... 0.63
6) COc1cc2cc(OC)c3cc4c(cc3c2c(OC)c1OC)OCO4 ... 1.75
7) CC(C)=CCc1c2c(c3occ(-c4ccc(O)cc4)c(=O)c3c1O)CC(C(C)(C)O)O2 (stereo unspecified) ... 1.53
8) O=C1CCCc2cc3c(cc21)CC1(Cc2ccccc2C1)C3 ... 1.33
9) COc1ccc2c(c1)sc1nc(-c3ccccc3)c(-c3cccc4ccccc34)n12 ... 1.45
